B1: MBP-PIF6_(1-100)-His6 [A. thaliana] / PhyB_(1-651)-Avitag-His6 [modified: phycocyanobilin chromophore; biotin on the Avitag; phycocyanobilin chromophore; biotin on the Avitag] [A. thaliana] (parent)
chain 1: MMFLPTDYCCRLSDQEYMELVFENGQILAKGQRSNVSLHNQRTKSIMDLYEAEYNEDFMKSIIHGGGGAITNLGDTQVVPQSHVAAAHETNMLESNKHVD
chain 2: MVSGVGGSGGGRGGGRGGEEEPSSSHTPNNRRGGEQAQSSGTKSLRPRSNTESMSKAIQQYTVDARLHAVFEQSGESGKSFDYSQSLKTTTYGSSVPEQQITAYLSRIQRGGYIQPFGCMIAVDESSFRIIGYSENAREMLGIMPQSVPTLEKPEILAMGTDVRSLFTSSSSILLERAFVAREITLLNPVWIHSKNTGKPFYAILHRIDVGVVIDLEPARTEDPALSIAGAVQSQKLAVRAISQLQALPGGDIKLLCDTVVESVRDLTGYDRVMVYKFHEDEHGEVVAESKRDDLEPYIGLHYPATDIPQASRFLFKQNRVRMIVDCNATPVLVVQDDRLTQSMCLVGSTLRAPHGCHSQYMANMGSIASLAMAVIINGNEDDGSNVASGRSSMRLWGLVVCHHTSSRCIPFPLRYACEFLMQAFGLQLNMELQLALQMSEKRVLRTQTLLCDMLLRDSPAGIVTQSPSIMDLVKCDGAAFLYHGKYYPLGVAPSEVQIKDVVEWLLANHADSTGLSTDSLGDAGYPGAAALGDAVCGMAVAYITKRDFLFWFRSHTAKEIKWGGAKHHPEDKDDGQRMHPRSSFQAFLEVVKSRSQPWETAEMDAIHSLQLILRDSFKESEAAMNSKVVDGVVQPCRDMAGEQGIDELGA

Variants of: B1
MEASUREMENT_NOTES: size exclusion chromatography (gel filtration, Superdex 200 10/300 GL, A671 nm)
CONDITIONS_USED: with PhyB_(1-651)-Avitag-His6 [modified: phycocyanobilin chromophore, PhyB illuminated with 660 nm light, PhyB:MBP-PIF 2:1 molar ratio, 60 min at room temperature, parent: 56, read off a plot
OBSERVED_PROPERTY: response (% PhyB-PIF complex)

CHANGES	response (% PhyB-PIF complex)
chain 1 S37A	57
chain 1 N35Q	52
chain 1 C9S C10S	64
chain 1 C9S C10S N35Q	54
